Exercise: state measured Do, before irradiation for each of the molecules provided.
Tested on: 32Dcl3 murine hematopoietic cells
testDescription: Irradiation survival assay (colony formation) in 32Dcl3 cells
Type: cell-based
appliedConditions: 10 μM nitroxide for 1 h before irradiation, 0 to 8 Gy, colonies after 7 d
Record the value in Gy, omitting the unit from your answer.

Give its Do, before irradiation value. Item: "CC(C)C[C@@H](/C=C/CC(=O)Nc1ccc2c(c1)C(C)(C)N([O])C2(C)C)NC(=O)OC(C)(C)C"
1.8

Tell me the measured Do, before irradiation of "CC(C)C[C@@H](/C=C/CC(=O)NC1CC(C)(C)N([O])C(C)(C)C1)NC(=O)OC(C)(C)C" , please.
2.3

Using the record for "CC(C)C[C@@H](/C=C/CC(=O)N[C@@H]1CC2CCC[C@@H](C1)N2[O])NC(=O)OC(C)(C)C" , report its Do, before irradiation.
3.1

GET /values?readout=Do, before irradiation&item= CC(C)C[C@@H](/C=C/CC(=O)NC1[C@@H]2CC3C[C@H]1C[C@](C)(C2)N3[O])NC(=O)OC(C)(C)C (stereo partly shown)
2.6

These data points were gathered from patent US9732105B2.
